Molecular target: P2Y purinoceptor 12 (Homo sapiens)
Sequence (Q9H244 whole entry): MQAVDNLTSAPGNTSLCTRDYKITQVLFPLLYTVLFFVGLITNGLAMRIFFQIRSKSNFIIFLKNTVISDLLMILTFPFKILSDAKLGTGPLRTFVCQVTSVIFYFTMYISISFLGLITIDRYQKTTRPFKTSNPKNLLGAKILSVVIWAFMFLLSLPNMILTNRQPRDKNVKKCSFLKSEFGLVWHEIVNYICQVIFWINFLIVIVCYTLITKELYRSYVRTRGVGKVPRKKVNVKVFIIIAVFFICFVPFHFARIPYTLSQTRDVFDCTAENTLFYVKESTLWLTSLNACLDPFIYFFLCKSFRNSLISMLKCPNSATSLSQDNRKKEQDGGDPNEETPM
Experiment: Inhibition of human P2Y12 receptor expressed in CHO cells
pKi: −log10 of the molar value.
endpoint: pKi

>>> print(df.to_string())
                                    molecule  measurement
 0  CCCCCOC(=O)N1CCN(C(=O)[C@H](CCC(=O)O)NC(=O)c2cc(N3CCN(C(=O)C(C)C)CC3)cc(-c3ccccc3)n2)CC1         7.80
 1  CCCCCOC(=O)N1CCN(C(=O)C(CCC(=O)O)NC(=O)c2cc(N3CCC(CO)C3)cc(-c3ccccc3)n2)CC1 (mixture of isomers)         7.68
 2  CCCCCOC(=O)N1CCN(C(=O)[C@H](CCC(=O)O)NC(=O)c2cc(N3CCC(C(=O)N4CCC4)CC3)cc(-c3ccccc3)n2)CC1         8.92
 3  CCCCCOC(=O)N1CCN(C(=O)[C@H](CCC(=O)O)NC(=O)c2cc(N3CC[C@H](C(=O)N4CCCC4)C3)cc(-c3ccccc3)n2)CC1         8.77
 4  CCCCOC(=O)N1CCN(C(=O)[C@H](CCC(=O)O)NC(=O)c2cc(N3CCC(CNC)CC3)cc(-c3ccccc3)n2)CC1         8.40
 5  CCCCCOC(=O)N1CCN(C(=O)[C@H](CCC(=O)O)NC(=O)c2cc(N3CCN(C(C)=O)CC3)cc(-c3ccccc3)n2)CC1         7.66
 6  CCCCCOC(=O)N1CCN(C(=O)[C@H](CCC(=O)O)NC(=O)c2cc(N3CCCC(N)C3)cc(-c3ccccc3)n2)CC1 (stereo partly drawn)         8.26
 7  CCCCCOC(=O)N1CCN(C(=O)[C@H](CCC(=O)O)NC(=O)c2cc(N3CCN(C)CC3)cc(-c3ccccc3)n2)CC1         7.82
 8  CCCCCOC(=O)N1CCN(C(=O)[C@H](CCC(=O)O)NC(=O)c2cc(N3CC(C(=O)NC)C3)cc(-c3ccccc3)n2)CC1         8.77
 9  CCCCOC(=O)N1CCN(C(=O)[C@H](CCC(=O)O)NC(=O)c2cc(N3CCC(CN(CC)CC)CC3)cc(-c3ccccc3)n2)CC1         8.12
10  CCCCCOC(=O)N1CCN(C(=O)[C@H](CCC(=O)O)NC(=O)c2cc(N3CC(N(C)C)C3)cc(-c3ccccc3)n2)CC1         8.26
11  CCCCCOC(=O)N1CCN(C(=O)[C@H](CCC(=O)O)NC(=O)c2cc(N3CC[C@H](OCC(=O)N(C)C)C3)cc(-c3ccccc3)n2)CC1         8.30
12  CCCCCOC(=O)N1CCN(C(=O)[C@H](CCC(=O)O)NC(=O)c2cc(N3CCC(C(=O)NC)CC3)cc(-c3ccccc3)n2)CC1         8.10

---

Experiment: Antiplatelet activity in human platelet rich plasma assessed as inhibition of ADP-induced platelet aggregation relative to AZD-6140
Assay type: functional
endpoint: fold change (FC)

In [3]: df
Out[3]:
                                   compound          endpoint  measurement
0  CCCCCOC(=O)N1CCN(C(=O)[C@H](CCC(=O)O)NC(=O)c2cc(N3CCN(CCS(C)(=O)=O)CC3)cc(-c3ccccc3)n2)CC1  fold change (FC)         0.81
1  CCCCCOC(=O)N1CCN(C(=O)[C@H](CCC(=O)O)NC(=O)c2cc(N3CCCC(C(N)=O)C3)cc(-c3ccccc3)n2)CC1 (stereo partly drawn)  fold change (FC)          7.3
2  CCCCCOC(=O)N1CCN(C(=O)C(CCC(=O)O)NC(=O)c2cc(N3CCC(O)C3)cc(-c3ccccc3)n2)CC1 (mixture of isomers)  fold change (FC)          3.9
3  CCCCCOC(=O)N1CCN(C(=O)[C@H](CCC(=O)O)NC(=O)c2cc(N3CCNCC3)cc(-c3ccccc3)n2)CC1  fold change (FC)          2.3
4  CCCCCOC(=O)N1CCN(C(=O)[C@H](CCC(=O)O)NC(=O)c2cc(N3CCN(C(C)=O)CC3)cc(-c3ccccc3)n2)CC1  fold change (FC)          2.7
5  CCCCOC(=O)N1CCN(C(=O)[C@H](CCC(=O)O)NC(=O)c2cc(N3CCC(C(=O)NCC)CC3)cc(-c3ccccc3)n2)CC1  fold change (FC)          0.9
6  CCCCCOC(=O)N1CCN(C(=O)[C@H](CCC(=O)O)NC(=O)c2cc(N3CCC(C(N)=O)CC3)cc(-c3ccccc3)n2)CC1  fold change (FC)          0.9
7  CCCCOC(=O)N1CCN(C(=O)[C@H](CCC(=O)O)NC(=O)c2cc(N3CCC(C(=O)N(CC)CC)CC3)cc(-c3ccccc3)n2)CC1  fold change (FC)         0.71
